# Tested on: souris
# assay-explanation: Toxicity: mortality in mice after oral or intraperitoneal administration
# Type: in vivo
# condition-info: voie intrapéritonéale, 200mg/kg
readout-kind: mortalité

compound	mortalité
O=C(Nc1ccccc1)N1CC(CN2CCN(c3cccc(C(F)(F)F)c3)CC2)OC1=O (stereo not shown)	aucune mortalité
N=C1OC(CN2CCN(c3ccc(F)cc3)CC2)CN1C(=O)Nc1ccccc1 (stereo not shown)	aucune mortalité
N=C1OC(CN2CCN(c3cccc(Cl)c3)CC2)CN1C(=O)Nc1ccccc1 (stereo not shown)	aucune mortalité
N=C1OC(CN2CCN(c3ccccn3)CC2)CN1C(=O)Nc1ccccc1 (stereo not shown)	aucune mortalité
N=C1OC(CN2CCN(c3ccccc3)CC2)CN1C(=S)Nc1ccccc1 (stereo not shown)	aucune mortalité

Please give mortalité for each item listed below.
1. N=C1OC(CN2CCN(c3ccccc3)CC2)CN1C(=O)Nc1ccccc1 (stereo not shown)
2. N=C1OC(CN2CCN(c3cccc(C(F)(F)F)c3)CC2)CN1C(=O)Nc1ccccc1 (stereo not shown)

1: aucune mortalité; 2: aucune mortalité
